Below is a list of entries, each paired with its recorded abundance fitness value.
B1: Histone-lysine N-methyltransferase SETD2, residues 2382 to 2430; numbered along this chain, Q9BYW2 (parent)
chain: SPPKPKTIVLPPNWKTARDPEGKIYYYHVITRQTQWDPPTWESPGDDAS

variants of: B1; experiment: abundance fitness (aPCA) (normalised: wild type 0, dead -1); higher = more abundant; growth selection in yeast, the domain comes from the species named; conditions: Homo sapiens
Note: the reply should be a number with no unit written.

SPPKPKTIVLPPNWKTARDPEGKIYYYHVITSQTQWDPPTWESPGDDAS [R32S]; -0.363
SPPKPKTIVLPPNQKTARDPEGKIYYYHVITRQTQWDPPTWESPGDDAS [W14Q]; -0.763
SPPKPKTIVLPPNCKTARDPEGKIYYYHVITRQTQWDPPTWESPGDDAS [W14C]; -1.02
SPPKPKIIVLPPNWKTARDPEGKIYYYHVITRQTQWDPPTWESPGDDAS [T7I]; -0.212
SPPKPKQIVLPPNWKTARDPEGKIYYYHVITRQTQWDPPTWESPGDDAS [T7Q]; 0.013

Look at this variant and give its reported abundance fitness. SPPKPKTIVLPPNWKTARDPEGKIYYYHVITRQTQWDPPTWESPWDDAS [G45W]
0.026

Given the entry SPPKPKTIVLPPNWKTARDPEGKIYYYHVITRQTQWDVPTWESPGDDAS [P38V] , report its measured abundance fitness.
-0.108

Fill in the blank: the reported abundance fitness of SPPKPKTIVLPPCWKTARDPEGKIYYYHVITRQTQWDPPTWESPGDDAS [N13C] is ____.
-0.292

What value of measured abundance fitness is listed for SPPKPKTIVLPPNWKTKRDPEGKIYYYHVITRQTQWDPPTWESPGDDAS [A17K] ?
-0.131
